# target: UniProt:P0DMS8
# Sequence (P0DMS8 whole entry): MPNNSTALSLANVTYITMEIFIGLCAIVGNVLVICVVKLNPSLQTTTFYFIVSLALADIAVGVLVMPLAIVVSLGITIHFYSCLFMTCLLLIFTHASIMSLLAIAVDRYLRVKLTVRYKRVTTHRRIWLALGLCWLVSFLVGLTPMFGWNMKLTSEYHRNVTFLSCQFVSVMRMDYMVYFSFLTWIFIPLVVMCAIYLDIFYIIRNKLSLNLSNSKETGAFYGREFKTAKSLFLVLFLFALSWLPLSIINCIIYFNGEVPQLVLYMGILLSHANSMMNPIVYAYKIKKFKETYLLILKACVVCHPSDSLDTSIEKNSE
# assayExplanation: Displacement of [3H]NECA from human recombinant adenosine A3 receptor
parameterMeasured: pKi
Just so you know, pKi here is -log10 of the concentration in molar units; reply with that number alone.

Consider the molecule shown here: Nc1nc(N/N=C/C2CCCCC2)nc2c1ncn2[C@@H]1O[C@H](CO)[C@@H](O)[C@H]1O What is its recorded pKi?
6.04

###

Let's go through some Ki measurements on Adenosine receptor A2a (Rattus norvegicus) together.
Sequence (P30543 whole entry): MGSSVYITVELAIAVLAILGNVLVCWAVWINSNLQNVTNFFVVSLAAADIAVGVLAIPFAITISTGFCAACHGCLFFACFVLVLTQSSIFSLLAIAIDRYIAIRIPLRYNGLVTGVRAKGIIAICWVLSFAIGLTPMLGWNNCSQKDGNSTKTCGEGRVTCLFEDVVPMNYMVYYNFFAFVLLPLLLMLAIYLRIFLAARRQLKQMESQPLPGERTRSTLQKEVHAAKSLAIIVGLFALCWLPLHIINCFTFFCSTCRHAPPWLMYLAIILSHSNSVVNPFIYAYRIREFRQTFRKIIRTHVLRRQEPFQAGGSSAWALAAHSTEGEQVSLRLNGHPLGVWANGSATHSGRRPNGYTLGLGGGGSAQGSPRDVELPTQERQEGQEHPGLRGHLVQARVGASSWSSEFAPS
Provide only the numeric value, understood in nM.

smilestext=Nc1nc(N/N=C/[C@@H](O)[C@H](O)[C@H](O)[C@@H](O)CO)nc2c1ncn2[C@@H]1O[C@H](CO)[C@@H](O)[C@H]1O unitstext=nM readoutvalue=329

What value of measured Ki is listed for Nc1nc(N/N=C/c2ccc(Cl)c(Cl)c2)nc2c1ncn2[C@@H]1O[C@H](CO)[C@@H](O)[C@H]1O ?
24.4

Repeat with Nc1nc(N/N=C/c2ccc(Cl)cc2O)nc2c1ncn2[C@@H]1O[C@H](CO)[C@@H](O)[C@H]1O
91.7

###

# target: Adenosine receptor A1 (Homo sapiens)
# assayExplanation: Displacement of [3H]CCPA from human recombinant adenosine A1 receptor expressed in CHO cells 90 mins by liquid scintillation counting analysis
# Type: cell-based
parameterMeasured: Ki
Don't forget the unit after the value.

compound="Nc1nc(N/N=C/C2CCCCC2)nc2c1ncn2[C@@H]1O[C@H](CO)[C@@H](O)[C@H]1O [BINODENOSON]" readoutvalue="0.169 µM"

Which value of Ki has been reported for COc1ccc(/C=N/Nc2nc(N)c3ncn([C@@H]4O[C@H](CO)[C@@H](O)[C@H]4O)c3n2)cc1 in the records?
0.723 µM

###

Catalogue of compounds with associated inhibition
# target: Adenosine receptor A2a (Rattus norvegicus) (UniProt P30543)
# assayExplanation: Displacement of [3H]CGS21680 from adenosine A2A receptor in rat brain striatal membrane at 1 uM after 60 mins by liquid scintillation counting analysis
# Assay type: cell membranes
I only need the number, in %, no unit after it.

Study these solved cases before continuing.
smilestext=CN(NC(=O)Nc1ccccc1)c1nc(N)c2ncn([C@@H]3O[C@H](CO)[C@@H](O)[C@H]3O)c2n1 readoutvalue=11
smilestext=CN(/N=C/[C@@H](O)[C@H](O)[C@@H](O)[C@@H](O)CO)c1nc(N)c2ncn([C@@H]3O[C@H](CO)[C@@H](O)[C@H]3O)c2n1 readoutvalue=31
smilestext=Nc1nc(N/N=C/[C@@H](O)[C@@H](O)[C@@H](O)CO)nc2c1ncn2[C@@H]1O[C@H](CO)[C@@H](O)[C@H]1O readoutvalue=33
smilestext=Nc1nc(N/N=C(\CO)[C@H](O)[C@@H](O)[C@@H](O)CO)nc2c1ncn2[C@@H]1O[C@H](CO)[C@@H](O)[C@H]1O readoutvalue=34

If you can, please state the reported inhibition value of CN(/N=C(\CO)[C@H](O)[C@@H](O)[C@@H](O)CO)c1nc(N)c2ncn([C@@H]3O[C@H](CO)[C@@H](O)[C@H]3O)c2n1 .
25

Now give it for Nc1nc(N/N=C/[C@H](O)[C@H](O)[C@@H](O)[C@@H](O)CO)nc2c1ncn2[C@@H]1O[C@H](CO)[C@@H](O)[C@H]1O too.
33

Now give it for CN(/N=C/[C@H](O)[C@@H](O)[C@@H](O)[C@H](O)CO)c1nc(N)c2ncn([C@@H]3O[C@H](CO)[C@@H](O)[C@H]3O)c2n1 too.
25

Further, for Nc1nc(N/N=C/[C@@H](O)[C@H](O)[C@@H](O)[C@@H](O)CO)nc2c1ncn2[C@@H]1O[C@H](CO)[C@@H](O)[C@H]1O ?
42

And for CN(/N=C/[C@H](O)[C@H](O)[C@@H](O)[C@@H](O)CO)c1nc(N)c2ncn([C@@H]3O[C@H](CO)[C@@H](O)[C@H]3O)c2n1 ?
2

And what about the compound CN(/N=C/[C@@H](O)[C@@H](O)[C@@H](O)CO)c1nc(N)c2ncn([C@@H]3O[C@H](CO)[C@@H](O)[C@H]3O)c2n1 ?
7

Repeat with CN(NC(=S)Nc1ccccc1)c1nc(N)c2ncn([C@@H]3O[C@H](CO)[C@@H](O)[C@H]3O)c2n1
16

###

# target: Adenosine receptor A1 (Homo sapiens, UniProt P30542)
# Sequence (P30542 whole entry): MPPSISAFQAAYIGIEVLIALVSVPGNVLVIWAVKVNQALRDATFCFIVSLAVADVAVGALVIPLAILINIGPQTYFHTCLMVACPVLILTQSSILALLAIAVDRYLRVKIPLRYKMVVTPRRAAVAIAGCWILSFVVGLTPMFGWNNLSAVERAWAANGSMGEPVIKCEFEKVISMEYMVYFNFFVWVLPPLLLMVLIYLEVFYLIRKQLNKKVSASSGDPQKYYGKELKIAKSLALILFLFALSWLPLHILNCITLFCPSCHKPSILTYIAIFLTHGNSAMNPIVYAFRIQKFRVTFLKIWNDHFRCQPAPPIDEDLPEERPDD
parameterMeasured: pKi
Note on pKi: it is the negative log10 of concentration, concentration in mol/L.

# returns recorded pKi (system: Adenosine receptor A1 (Homo sapiens, UniProt P30542)) for Nc1nc(N/N=C/C2CCCCC2)nc2c1ncn2[C@@H]1O[C@H](CO)[C@@H](O)[C@H]1O [BINODENOSON]
4.32

###

# target: Adenosine receptor A2a (Homo sapiens, UniProt P29274)
# Sequence (P29274 whole entry): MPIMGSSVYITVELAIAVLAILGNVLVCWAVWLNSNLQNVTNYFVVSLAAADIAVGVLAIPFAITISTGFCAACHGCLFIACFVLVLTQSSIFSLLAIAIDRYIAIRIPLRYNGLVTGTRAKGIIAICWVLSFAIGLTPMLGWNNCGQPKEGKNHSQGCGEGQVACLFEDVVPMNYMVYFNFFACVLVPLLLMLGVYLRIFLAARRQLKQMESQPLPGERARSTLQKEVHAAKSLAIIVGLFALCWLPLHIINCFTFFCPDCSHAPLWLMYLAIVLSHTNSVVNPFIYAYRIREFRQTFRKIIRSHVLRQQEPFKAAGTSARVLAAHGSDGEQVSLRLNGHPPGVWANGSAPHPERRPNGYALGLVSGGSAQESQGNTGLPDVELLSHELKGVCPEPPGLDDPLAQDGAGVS
# assayExplanation: Agonist activity at human recombinant adenosine A2A receptor expressed in CHO cells assessed as [3H]cAMP accumulation after 15 mins by liquid scintillation counting
compounds and their reported EC50
Form entry: value (nM) — number only.

smilestext=Nc1nc(N/N=C/c2ccc(Cl)c(Cl)c2)nc2c1ncn2[C@@H]1O[C@H](CO)[C@@H](O)[C@H]1O unitstext=nM readoutvalue=1660

Please examine the following record next.
What value of measured EC50 is listed for Nc1nc(N/N=C/[C@@H](O)[C@H](O)[C@H](O)[C@@H](O)CO)nc2c1ncn2[C@@H]1O[C@H](CO)[C@@H](O)[C@H]1O ?
1440

###

# target: Adenosine receptor A1 (Rattus norvegicus, UniProt P25099)
# Sequence (P25099 whole entry): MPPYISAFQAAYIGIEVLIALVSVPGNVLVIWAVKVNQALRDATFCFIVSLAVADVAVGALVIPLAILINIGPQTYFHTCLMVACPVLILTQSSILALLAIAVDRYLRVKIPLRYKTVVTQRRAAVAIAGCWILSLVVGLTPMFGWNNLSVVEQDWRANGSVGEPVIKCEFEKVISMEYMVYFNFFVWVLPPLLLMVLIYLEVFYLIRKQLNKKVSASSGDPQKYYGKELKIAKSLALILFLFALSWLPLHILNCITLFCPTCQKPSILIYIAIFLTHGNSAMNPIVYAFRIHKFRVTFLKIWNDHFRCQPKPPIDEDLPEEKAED
parameterMeasured: Ki (nM)
The reply should contain only the number, in nM.

Fill in: Ki of Nc1nc(N/N=C/C2CCCCC2)nc2c1ncn2[C@@H]1O[C@H](CO)[C@@H](O)[C@H]1O is ___
70.8

###

pKi: −log10 of the molar value.
These records show pKi for Adenosine receptor A2a (Rattus norvegicus, UniProt P30543).

smilestext=CN(/N=C/[C@H](O)[C@@H](O)[C@@H](O)[C@H](O)CO)c1nc(N)c2ncn([C@@H]3O[C@H](CO)[C@@H](O)[C@H]3O)c2n1 readoutvalue="< 6.00"
smilestext=Nc1nc(N/N=C/[C@H](O)[C@H](O)[C@@H](O)[C@@H](O)CO)nc2c1ncn2[C@@H]1O[C@H](CO)[C@@H](O)[C@H]1O readoutvalue="< 6.00"

Requested field: pKi. Item: CN(/N=C/[C@@H](O)[C@@H](O)[C@@H](O)CO)c1nc(N)c2ncn([C@@H]3O[C@H](CO)[C@@H](O)[C@H]3O)c2n1
< 6.00
